target: GCase (Homo sapiens, UniProt P04062); construct: endogenous in cells; host or cells: HeLa cells; assay: activation of GCase in a live cell PFB assay in HELA cells; format: cell-based; details: activation of GCase, EC50 ranges
Sequence (P04062 40-536): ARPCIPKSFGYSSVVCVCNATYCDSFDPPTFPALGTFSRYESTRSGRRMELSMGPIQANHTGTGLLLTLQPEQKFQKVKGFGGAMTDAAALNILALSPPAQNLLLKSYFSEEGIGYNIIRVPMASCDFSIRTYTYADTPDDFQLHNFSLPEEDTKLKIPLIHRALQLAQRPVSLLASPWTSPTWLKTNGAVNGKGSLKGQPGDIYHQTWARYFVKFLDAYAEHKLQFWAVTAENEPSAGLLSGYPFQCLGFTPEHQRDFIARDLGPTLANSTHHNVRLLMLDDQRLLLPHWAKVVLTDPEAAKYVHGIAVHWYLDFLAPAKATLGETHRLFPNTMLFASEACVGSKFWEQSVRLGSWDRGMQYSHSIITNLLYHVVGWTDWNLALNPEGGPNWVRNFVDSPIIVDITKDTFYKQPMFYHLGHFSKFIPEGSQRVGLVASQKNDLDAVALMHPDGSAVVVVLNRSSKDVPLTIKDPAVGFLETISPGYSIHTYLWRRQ
READOUT TYPE: EC50

>>> df
                                    compound  readout_type  measured_value
 0  Cc1c(N2CC3(CCN(c4cnc5cnn(C6COC6)c5n4)C3)C2)ccnc1C(F)(F)F          EC50        > 100 µM
 1  O=C1N(c2ccnc(C(F)(F)F)c2)CCC12CN(c1cnc3cnn(C4COC4)c3n1)C2          EC50    50 to 100 µM
 2  CCN1C(=O)N(c2ccnc(C(F)(F)F)n2)C(=O)C12CCN(c1cnc3cnn(C4COC4)c3n1)CC2          EC50     10 to 50 µM
 3  Cc1nn(CC(F)F)c2nc(N3CCC4(CC3)CN(c3cc(C(F)(F)F)ccn3)C4)ncc12          EC50     10 to 50 µM
 4  Cc1nn(CC(F)F)c2nc(N3CCC4(CC3)CN(c3cc(C(F)(F)F)ccn3)C4)cnc12          EC50         < 10 µM
 5  O=C1CC2(CCN(c3cnc4cnn(CC(F)F)c4n3)CC2)CN1c1cnccc1C(F)(F)F          EC50     10 to 50 µM
 6  FC(F)Cn1ncc2ncc(N3CCCC4(CN(c5ccnc(C(F)(F)F)c5)C4)C3)nc21          EC50     10 to 50 µM
 7  FC(F)Cn1ncc2ncc(N3CCC4(C3)CN(c3ncc(C(F)(F)F)cn3)C4)nc21          EC50     10 to 50 µM
 8  O=C1CC2(CCN(c3cnc4cnn(CC(F)F)c4n3)CC2)CN1Cc1ccc(F)cc1          EC50         < 10 µM
 9  CCN1C(=O)N(c2ccc(C(F)(F)F)nc2)C(=O)C12CCN(c1ncc3c(C)nn(CC(F)F)c3n1)CC2          EC50         < 10 µM
10  O=C1CC2(CCN(c3ccc(C(F)(F)F)nc3)C2)CN1c1cnc2cnn(CC(F)F)c2n1 (stereo not shown)          EC50         < 10 µM
11  O=C1CC2(CCN(c3cnc4cnn(C5COC5)c4n3)CC2)CN1c1ccc(C(F)(F)F)cn1          EC50         < 10 µM
12  Cc1nc(N2CCC3(CCN(c4cnc5cnn(CC(F)(F)F)c5n4)C3)C2)cc(C(F)(F)F)n1 (stereo not shown)          EC50     10 to 50 µM
13  Cc1cc(N2CC3(CCN(c4ncc5cnn(CC(F)(F)F)c5n4)C3)C2)nc(C(F)(F)F)n1          EC50         < 10 µM
14  O=C1CC2(CCCN(c3cnc4cnn(CC(F)F)c4n3)C2)CN1c1cccc(C(F)(F)F)n1 (stereo not shown)          EC50     10 to 50 µM
15  Cc1nc(N2CCC3(CCN(c4cnc5c(C)nn(C6COC6)c5n4)C3)C2)cc(C(F)(F)F)n1 (stereo not shown)          EC50     10 to 50 µM

Data origin: patent US20250034170A1
